- measured-on: human melanocortin receptor-1 (human, UniProt Q01726 1-317)
- Sequence (Q01726 whole entry): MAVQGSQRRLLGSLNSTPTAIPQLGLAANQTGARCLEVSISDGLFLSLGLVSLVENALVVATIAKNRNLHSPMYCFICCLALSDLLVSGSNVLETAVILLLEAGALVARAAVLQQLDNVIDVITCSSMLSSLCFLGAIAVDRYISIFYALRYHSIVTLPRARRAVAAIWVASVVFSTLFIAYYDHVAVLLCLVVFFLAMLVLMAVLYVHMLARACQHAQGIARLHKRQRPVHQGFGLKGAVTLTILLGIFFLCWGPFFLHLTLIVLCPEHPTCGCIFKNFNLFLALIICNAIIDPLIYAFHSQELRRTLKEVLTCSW
- test-name: cell-based or functional assay
Positions of bridges follow the written chain, without caps; N, C: chain ends. Non-standard residues stand in square brackets, D forms with d. 2Nal = N[C@@H](Cc1ccc2ccccc2c1)C(=O)O; Orn = NCCC[C@H](N)C(=O)O
experimental-endpoint: hMC1r EC50 (nM)
# number only, unit nM dropped from output

Query :: Would you kindly share the measured hMC1r EC50 for Ac-RKN[dF]RWD-NH2 (lactam 2-7, also called Ac-Arg-cyclo(Lys-Asn-D-Phe-Arg-Trp-Asp)-NH2) [Peptide No. 155] ?
Result :: 14

Query :: For the binder shown here, Ac-[dR][Orn]N[dF]RWE-NH2 (lactam 2-7) [Peptide No. 156] , give the reported hMC1r EC50.
Result :: 80

Query :: Recorded hMC1r EC50 of Ac-R[Orn]N[dF]RWE-NH2 (lactam 2-7) [Peptide No. 154] , please.
Result :: 25

Query :: Entry RXQFRWX (N-terminal Ac; Dab 2 (X); D-Phe 4; hGlu 7 (X); cyclo(Dab 2-hGlu 7); C-terminal NH2, also called Ac-Arg-cyclo(Dab-Gln-D-Phe-Arg-Trp-hGlu)-NH2) [Peptide No. 159] has what hMC1r EC50?
Result :: 26

Query :: For the binder shown here, Ac-RKN[dF]R[2Nal]D-NH2 (lactam 2-7; SMILES CC(=O)N[C@@H](CCCNC(=N)N)C(=O)N[C@H]1CCCCNC(=O)C[C@@H](C(N)=O)NC(=O)[C@H](Cc2ccc3ccccc3c2)NC(=O)[C@H](CCCNC(=N)N)NC(=O)[C@@H](Cc2ccccc2)NC(=O)[C@H](CC(N)=O)NC1=O, also called Ac-Arg-cyclo(Lys-Asn-D-Phe-Arg-Nal2-Asp)-NH2) [Peptide No. 162] , give the reported hMC1r EC50.
Result :: 22

Query :: What measured hMC1r EC50 goes with Ac-REN[dF]RW[Orn]-NH2 (lactam 2-7, also called Ac-Arg-cyclo(Glu-Asn-D-Phe-Arg-Trp-Orn)-NH2) [Peptide No. 161] ?
Result :: 13

The values you see were collected from patent US10660939.
